System: Rabbit Psoas myofibrils (skeletal myosin ATPase)
Test: Myofibril ATPase assay, rabbit psoas (skeletal) myofibrils
Assay type: biochemical
Conditions: rabbit psoas myofibrils; Y75 value
ENDPOINT: Skeletal EC25 (µM)

{"columns": ["MOLECULE", "ENDPOINT", "MEAS_VALUE"],
 "data": [
  ["Cc1cccc([C@H](CO)NC(=O)Cc2c(C)c3c(C)nccc3[nH]c2=O)c1 (single isomer, unassigned) [compound 313]", "Skeletal EC25", 100.00]
]}

[I] Cc1cc([C@H](C)NC(=O)Cc2cc3c(C#N)nccc3[nH]c2=O)ncc1F [compound 471]
[II] C[C@H](NC(=O)Cc1cc2c(C(F)(F)F)nccc2[nH]c1=O)c1ccc(F)cc1F [compound 435]
[III] Cc1c(CC(=O)N[C@@H](C)c2ccc(C#N)cc2F)c(=O)[nH]c2ccc(C(F)(F)F)nc12 (single isomer, unassigned) [compound 209]
Prompt: Arrange items by their Skeletal EC25 values in increasing order. # respond with the labels, arranged in the requested order
Completion: III, II, I
(III: 0.01 µM, II: 0.38 µM, I: 100.00 µM)

* * *

System: Porcine atria myofibrils (atrial myosin ATPase)
Assay: Myofibril ATPase assay, porcine atria myofibrils
Type: biochemical
Settings: porcine atria myofibrils; Y75 value (75% activity relative to no compound)
ENDPOINT: Atrial EC25 (µM)

Here's what some known entries look like.
{"columns": ["COMPOUND", "STUDY_SYSTEM", "Atrial EC25 [µM]"],
 "data": [
  ["Cc1nccc2[nH]c(=O)c(CC(=O)N[C@@H](C)c3ccccc3O)c(C)c12 (single isomer, unassigned)", "Porcine atria myofibrils (atrial myosin ATPase)", 100.00],
  ["Cc1nccc2[nH]c(=O)c(CC(=O)N[C@@H](CO)c3cccnc3)c(C)c12 (single isomer, unassigned)", "Porcine atria myofibrils (atrial myosin ATPase)", 100.00],
  ["Cc1c(CC(=O)N[C@@H]2COc3cccnc32)c(=O)[nH]c2ccnc(C#N)c12 (single isomer, unassigned)", "Porcine atria myofibrils (atrial myosin ATPase)", 14.71]
]}

[a] Cc1c(CC(=O)N[C@@H](C)c2ccc(F)cc2F)c(=O)[nH]c2ccncc12
[b] C[C@H](NC(=O)Cc1cc2c(C3CC3)nccc2[nH]c1=O)c1ccc(F)cc1F
[c] Cc1cc([C@H](C)NC(=O)Cc2cc3c(C#N)nccc3[nH]c2=O)ncc1F
Prompt: Arrange the 3 compounds by rising Atrial EC25, starting with the smallest. Submit the labels in the order that the ranking request calls for.
Completion: a, b, c

[a] Cc1c(CC(=O)N[C@H](C)c2ncc(C#N)cc2F)c(=O)[nH]c2ccc(O)nc12
[b] C[C@H](NC(=O)Cc1c(C2CC2)c2cnccc2[nH]c1=O)c1ccc(F)cc1F
[c] Cc1nccc2[nH]c(=O)c(CC(=O)N[C@H](c3ccc(F)cc3F)C(C)(C)O)c(C)c12 (single isomer, unassigned)
Prompt: Sort entries by Atrial EC25 from minimum to maximum value. // respond by listing labels in the order requested
Completion: b, a, c
(b: 1.14 µM, a: 2.77 µM, c: 100.00 µM)

[A] Cc1ccccc1[C@H](CO)NC(=O)Cc1c(C)c2c(C)nccc2[nH]c1=O (single isomer, unassigned)
[B] Cc1c(C(F)(F)C(=O)N[C@@H](C)c2ccc(F)cc2F)c(=O)[nH]c2ccnc(Cl)c12
Prompt: Of A and B , whose reported Atrial EC25 is numerically smaller? Write the label of whichever entry you select.
Completion: B

[I] Cc1c(CC(=O)N[C@@H](C)c2ccc(C#N)cc2F)c(=O)[nH]c2ccc(C(F)(F)F)nc12 (single isomer, unassigned)
[II] C[C@H](NC(=O)Cc1cc2nc(C(F)(F)F)ccc2[nH]c1=O)c1ccc(F)cc1F
[III] Cc1ccc2[nH]c(=O)c(CC(=O)N[C@@H](C)c3ccc(F)cc3F)c(C(F)(F)F)c2n1
Prompt: Could you please sort these 3 entries by Atrial EC25 from high to low? A ranking is expressed here by listing the labels in the requested order.
Completion: II, III, I
